Test system: PP1
assay: Phosphatase activity by [32P] release from phosphorylase-a or phosphohistone (Honkanen method)
Assay type: biochemical
test settings: 100 μM inhibitor; none = 100
Entries whose PP1 remaining activity, percent of control is below 60% take Yes; entries at or above 60% take No.

Answered cases to consult:
CCCCCCN(CCNC(=O)c1nc(-c2ccccc2)oc1C)C(=O)CCC(NC(=O)CCc1ccccc1)C(=O)O (stereo not shown) [Compound 1h] = No
Cc1oc(-c2ccccc2)nc1C(=O)NCCN(Cc1ccccc1)C(=O)CCC(NC(=O)C=Cc1ccccc1)C(=O)O (stereo not shown) [Compound 1o] = No
CCCCCCCCCC(=O)NC(CCC(=O)N(CCCCCC)CCNC(=O)c1nc(-c2ccccc2)oc1-c1ccccc1)C(=O)O (stereo not shown) [Compound 1e] = No

### Prompt Please state whether PP1 remaining activity, percent of control is below 60% for CCCCCCN(CCNC(=O)c1nc(-c2ccccc2)oc1C)C(=O)CCC(NC(=O)C=Cc1ccccc1)C(=O)O (stereo not shown) [Compound 1n]
### Response Yes

### Prompt Please state whether PP1 remaining activity, percent of control is below 60% for CCCCCCCCCC(=O)NC(CCC(=O)N(C)CCNC(=O)c1nc(-c2ccccc2)oc1-c1ccccc1)C(=O)O (stereo not shown) [Compound 1d]
### Response Yes

###

Readings of CDC25B activity remaining, percent of control for the listed compounds
Tested on: Recombinant human CDC25B
assay: CDC25B phosphatase assay, GST fusion protein, fluorescein diphosphate
Format: biochemical
test settings: none = 100; 1 hour preincubation; concentration not given (0.3-100 μM tested)
// return numeric value only (unit: %, not printed)

Cc1oc(-c2ccccc2)nc1C(=O)NCCN(Cc1ccccc1)C(=O)CCC(NC(=O)C=Cc1ccccc1)C(=O)O (stereo not shown) = 66
O=C(CCc1ccccc1)NC(CCC(=O)N(CCNC(=O)c1nc(-c2ccccc2)oc1-c1ccccc1)Cc1ccccc1)C(=O)O (stereo not shown) = 69
Cc1oc(-c2ccccc2)nc1C(=O)NCCN(Cc1ccccc1)C(=O)CCC(NC(=O)CCc1ccccc1)C(=O)O (stereo not shown) = 63

For record Cc1oc(-c2ccccc2)nc1C(=O)NCCN(C)C(=O)CCC(NC(=O)C=Cc1ccccc1)C(=O)O (stereo not shown) the listed CDC25B activity remaining, percent of control is 45

For record CCCCCCCCCC(=O)NC(CCC(=O)N(CCCCCC)CCNC(=O)c1nc(-c2ccccc2)oc1C)C(=O)O (stereo not shown) the listed CDC25B activity remaining, percent of control is 44

For record CCCCCCCCCC(=O)NC(CCC(=O)N(CCNC(=O)c1nc(-c2ccccc2)oc1C)Cc1ccccc1)C(=O)O (stereo not shown) the listed CDC25B activity remaining, percent of control is 42

For record CCCCCCCCCC(=O)NC(CCC(=O)N(CCCCCC)CCNC(=O)c1nc(-c2ccccc2)oc1-c1ccccc1)C(=O)O (stereo not shown) the listed CDC25B activity remaining, percent of control is 17

###

Test system: PP3
assay: Phosphatase activity by [32P] release from phosphorylase-a or phosphohistone (Honkanen method)
Format: biochemical
test settings: 100 μM inhibitor; none = 100
attribute measured: PP3 remaining activity, percent of control (%)
// return numeric value only (unit: %, not printed)

Check out these entries, answers already filled in.
CN(CCNC(=O)c1nc(-c2ccccc2)oc1-c1ccccc1)C(=O)CCC(NC(=O)C=Cc1ccccc1)C(=O)O (stereo not shown) [Compound 1p] = 68
CCCCCCCCCC(=O)NC(CCC(=O)N(CCCCCC)CCNC(=O)c1nc(-c2ccccc2)oc1C)C(=O)O (stereo not shown) [Compound 1b] = 32
CCCCCCCCCC(=O)NC(CCC(=O)N(CCNC(=O)c1nc(-c2ccccc2)oc1-c1ccccc1)Cc1ccccc1)C(=O)O (stereo not shown) [Compound 1f] = 85

For record O=C(C=Cc1ccccc1)NC(CCC(=O)N(CCNC(=O)c1nc(-c2ccccc2)oc1-c1ccccc1)Cc1ccccc1)C(=O)O (stereo not shown) [Compound 1r] the listed PP3 remaining activity, percent of control is 15

###

system tested: PP2A (Bos taurus, UniProt P67774)
Sequence (P67774 whole entry): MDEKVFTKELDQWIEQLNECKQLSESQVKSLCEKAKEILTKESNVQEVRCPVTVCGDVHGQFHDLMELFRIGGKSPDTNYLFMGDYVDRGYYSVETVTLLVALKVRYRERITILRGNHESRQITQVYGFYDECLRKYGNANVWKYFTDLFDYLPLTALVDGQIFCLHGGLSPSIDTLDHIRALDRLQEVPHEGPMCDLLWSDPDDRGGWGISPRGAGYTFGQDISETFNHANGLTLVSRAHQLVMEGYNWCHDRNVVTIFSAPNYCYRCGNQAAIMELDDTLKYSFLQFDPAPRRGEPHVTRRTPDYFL
assay: Phosphatase activity by [32P] release from phosphorylase-a or phosphohistone (Honkanen method)
Format: biochemical
test settings: 100 μM inhibitor; none = 100; read-out: PP2A, percent inhibition relative to control (100%)
Readings of PP2A remaining activity, % of control at 100 µM for the listed molecules
// return numeric value only (unit: %, not printed)

Check out these entries, answers already filled in.
CCCCCCCCCC(=O)NC(CCC(=O)N(CCNC(=O)c1nc(-c2ccccc2)oc1-c1ccccc1)Cc1ccccc1)C(=O)O (centres unmarked) [Compound 1f] = 156
O=C(C=Cc1ccccc1)NC(CCC(=O)N(CCNC(=O)c1nc(-c2ccccc2)oc1-c1ccccc1)Cc1ccccc1)C(=O)O (centres unmarked) [Compound 1r] = 68
Cc1oc(-c2ccccc2)nc1C(=O)NCCN(C)C(=O)CCC(NC(=O)CCc1ccccc1)C(=O)O (centres unmarked) [Compound 1g] = 109
O=C(CCc1ccccc1)NC(CCC(=O)N(CCNC(=O)c1nc(-c2ccccc2)oc1-c1ccccc1)Cc1ccccc1)C(=O)O (centres unmarked) [Compound 1l] = 69
CCCCCCCCCC(=O)NC(CCC(=O)N(CCCCCC)CCNC(=O)c1nc(-c2ccccc2)oc1C)C(=O)O (centres unmarked) [Compound 1b] = 135
CCCCCCCCCC(=O)NC(CCC(=O)N(CCCCCC)CCNC(=O)c1nc(-c2ccccc2)oc1-c1ccccc1)C(=O)O (centres unmarked) [Compound 1e] = 152

For record Cc1oc(-c2ccccc2)nc1C(=O)NCCN(Cc1ccccc1)C(=O)CCC(NC(=O)CCc1ccccc1)C(=O)O (centres unmarked) [Compound 1i] the listed PP2A remaining activity, % of control at 100 µM is 80

For record Cc1oc(-c2ccccc2)nc1C(=O)NCCN(Cc1ccccc1)C(=O)CCC(NC(=O)C=Cc1ccccc1)C(=O)O (centres unmarked) [Compound 1o] the listed PP2A remaining activity, % of control at 100 µM is 88

For record CCCCCCCCCC(=O)NC(CCC(=O)N(C)CCNC(=O)c1nc(-c2ccccc2)oc1C)C(=O)O (centres unmarked) [Compound 1a] the listed PP2A remaining activity, % of control at 100 µM is 100

For record CCCCCCCCCC(=O)NC(CCC(=O)N(C)CCNC(=O)c1nc(-c2ccccc2)oc1-c1ccccc1)C(=O)O (centres unmarked) [Compound 1d] the listed PP2A remaining activity, % of control at 100 µM is 69

For record CCCCCCCCCC(=O)NC(CCC(=O)N(CCNC(=O)c1nc(-c2ccccc2)oc1C)Cc1ccccc1)C(=O)O (centres unmarked) [Compound 1c] the listed PP2A remaining activity, % of control at 100 µM is 129

###

Readings of PP2A remaining activity, % of control at 100 µM for the listed compounds
system tested: PP2A (Bos taurus, UniProt P67774)
assay: Phosphatase activity by [32P] release from phosphorylase-a or phosphohistone (Honkanen method)
Assay type: biochemical
test settings: 100 μM inhibitor; none = 100; read-out: PP2A, percent inhibition relative to control (100%)
// return numeric value only (unit: %, not printed)

Check out these entries, answers already filled in.
CCCCCCN(CCNC(=O)c1nc(-c2ccccc2)oc1C)C(=O)CCC(NC(=O)CCc1ccccc1)C(=O)O (stereo not drawn) = 88
CCCCCCN(CCNC(=O)c1nc(-c2ccccc2)oc1C)C(=O)CCC(NC(=O)C=Cc1ccccc1)C(=O)O (stereo not drawn) = 87

Now consider the entry below.
For record CN(CCNC(=O)c1nc(-c2ccccc2)oc1-c1ccccc1)C(=O)CCC(NC(=O)C=Cc1ccccc1)C(=O)O (stereo not drawn) the listed PP2A remaining activity, % of control at 100 µM is 99
